// provenance: patent US5698521A

Assay Target: human glucagon receptor (Homo sapiens, UniProt P47871)
Sequence (P47871 26-477): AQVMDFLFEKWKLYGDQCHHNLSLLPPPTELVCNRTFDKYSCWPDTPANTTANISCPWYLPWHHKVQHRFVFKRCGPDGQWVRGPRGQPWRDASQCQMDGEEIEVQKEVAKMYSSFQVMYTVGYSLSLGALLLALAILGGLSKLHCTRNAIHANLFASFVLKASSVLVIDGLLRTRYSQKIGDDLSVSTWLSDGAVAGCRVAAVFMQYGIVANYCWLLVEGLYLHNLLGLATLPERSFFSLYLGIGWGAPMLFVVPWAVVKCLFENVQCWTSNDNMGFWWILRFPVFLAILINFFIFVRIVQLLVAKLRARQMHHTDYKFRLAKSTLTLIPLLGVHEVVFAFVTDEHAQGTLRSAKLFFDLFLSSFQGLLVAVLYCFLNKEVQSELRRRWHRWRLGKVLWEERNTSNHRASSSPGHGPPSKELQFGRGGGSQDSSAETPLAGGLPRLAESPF
Experimental Details: cell-based
Measure: EC50 (nM)

compound_structure=C=C[C@@]1(C)CC(=O)[C@]2(O)[C@@]3(C)[C@@H](O)CCC(C)(C)[C@@H]3[C@H](O)[C@H](OC(C)=O)[C@@]2(C)O1 test_value=2100

---

Test system: KZ10-20-48/Zem 228 cells (calcitonin receptor negative)
Experimental Details: CRE-luciferase induction in calcitonin receptor negative line KZ10-20-48/Zem 228 (specificity control)
Assay type: cell-based, baby hamster
Applied Conditions: Mesocricetus auratus, range 0.5-1.5 μM
pEC50: −log10 of the molar value.
Measure: pEC50

compound="C=C[C@@]1(C)CC(=O)[C@]2(O)[C@@]3(C)[C@@H](O)CCC(C)(C)[C@@H]3[C@H](O)[C@H](OC(C)=O)[C@@]2(C)O1 [forskolin]" measure=pEC50 test_value=6.22
